Molecular target: TEAD2 YAP50-100 (Homo sapiens)
Sequence (Q15562 217-447): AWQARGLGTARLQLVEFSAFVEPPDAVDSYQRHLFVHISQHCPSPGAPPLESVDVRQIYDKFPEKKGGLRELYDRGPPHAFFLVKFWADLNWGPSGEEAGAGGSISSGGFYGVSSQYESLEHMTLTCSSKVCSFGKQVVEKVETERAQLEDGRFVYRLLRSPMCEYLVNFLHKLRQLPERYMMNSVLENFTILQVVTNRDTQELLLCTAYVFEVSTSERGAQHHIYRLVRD
Assay: TEAD2-YAP HTRF (TR-FRET) protein-protein interaction assay
Settings: TEAD2, YAP peptide 50-100, HTRF; read-out: TEAD2 YAP50-100 HTRF combined: EC50
assayEndpoint: EC50 (nM)

Below, 3 compounds whose answers are already recorded.
>>> datavalue("O=C(c1c(-c2cnccn2)nn2c(=O)cc(-c3ccc(CC4CCCC4)cc3)[nH]c12)N1CC(CF)C1 [Compound 25]")
10
>>> datavalue("C[C@H]1[C@@H](CF)CN1C(=O)c1c(-c2cnccn2)nn2c(=O)cc(-c3ccc(CC4CCCC4)cc3)[nH]c12 (single isomer, unassigned) [Isomer A, Example 44]")
40
>>> datavalue("Cc1cnc(-c2nn3c(=O)cc(-c4ccc(C5CCCCC5)cc4)[nH]c3c2C(=O)N2CC(CF)C2)cn1 [Compound 26]")
30

a. Cc1nccnc1-c1nn2c(=O)cc(-c3ccc(O[C@@H](c4ccccc4)C(F)(F)F)cc3)[nH]c2c1C(=O)N1CC(CF)C1 [Compound 67]
b. CC(C)(C)c1ccc(COc2cc(=O)n3nc(-c4ncccn4)c(C(=O)N4CC(CF)C4)c3[nH]2)cc1 [Compound 54]
Please compare: a and b . Report which one has the smaller EC50 value. Could you answer with the label of the item you picked?
b
(b: 20 nM, a: 50 nM)

I. C[C@@H]1[C@H](CF)CN1C(=O)c1c(-c2cnccn2)nn2c(=O)cc(-c3ccc(C4CCCCC4)cc3)[nH]c12 (single isomer, unassigned) [Isomer B, Example 39]
II. O=C(c1c(-c2cnccn2)nn2c(=O)cc(-c3ccc(C4CCCCC4)c(F)c3)[nH]c12)N1CC(CF)C1 [Compound 23]
Sort I and II by EC50 descending and give the first. Could you answer with the label of the item you picked?
I
(I: 170 nM, II: 10 nM)

---

Molecular target: TEAD1 TAZ (amino acids 13-57) (Homo sapiens, UniProt P28347)
Sequence (P28347 167-426 limits assumed): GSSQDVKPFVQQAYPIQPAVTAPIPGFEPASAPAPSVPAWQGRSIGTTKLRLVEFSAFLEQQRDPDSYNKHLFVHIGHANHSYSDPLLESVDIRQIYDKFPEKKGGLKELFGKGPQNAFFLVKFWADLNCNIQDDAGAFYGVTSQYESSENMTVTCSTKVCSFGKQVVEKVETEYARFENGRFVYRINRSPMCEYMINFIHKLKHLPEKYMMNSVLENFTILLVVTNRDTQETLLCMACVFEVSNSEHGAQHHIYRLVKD
Assay: TEAD1-TAZ HTRF (TR-FRET) protein-protein interaction assay
Type: binding
Conditions: TEAD1, TAZ peptide, HTRF
assayEndpoint: TEAD1 TAZ HTRF combined: Max % Inhibition (%)

>>> datavalue("O=C(c1c(-c2nccnc2C(F)(F)F)nn2c(=O)cc(-c3ccc(C4CCCCC4)cc3)[nH]c12)N1CC(CF)C1")
74.0
>>> datavalue("O=C(c1c(-c2ccccc2)nn2c(=O)cc(-c3ccc(C4CCCCC4)cc3)[nH]c12)N1CC(CF)C1")
47.5
>>> datavalue("O=C(c1c(-c2cnccn2)nn2c(=O)cc(-c3ccc(C4CCCCC4)cc3)[nH]c12)N1CC(CF)C1")
60.6

1. C[C@H]1[C@@H](CF)CN1C(=O)c1c(-c2ncccn2)nn2c(=O)cc(-c3ccc(CC4CCCC4)cc3)[nH]c12 (single isomer, unassigned) [Isomer A, Example 43]
2. O=C(c1c(-c2cnco2)nn2c(=O)cc(-c3ccc(C4CCCCC4)cc3)[nH]c12)N1CC(CF)C1
Please compare: 1 and 2 . Report which one has the smaller TEAD1 TAZ HTRF combined: Max % Inhibition value. Could you answer with the label of the item you picked?
2

---

Target: TEAD1 YAP50-100 (Homo sapiens)
Assay: TEAD1-YAP HTRF (TR-FRET) protein-protein interaction assay
Details: TEAD1, YAP peptide 50-100, HTRF; read-out: TEAD1 YAP50-100 HTRF combined: EC50
Method: Purified His-tagged TEAD protein (YAP Binding Domain, amino acids 217-447) is pre-incubated with Europium labelled anti-His antibody tracer (Perkin Elmer Cat #AD0110). […] After 60 minutes, the plate is read on a plate reader using TR-FRET mode with wavelengths of 665 nm/615 nm. […] The potency of compounds as YAP:TEAD or TAZ:TEAD protein-protein interaction (PPi) inhibitors is determined by an IC50 or EC50 value generated using a non-linear four parameter curve fit.
assayEndpoint: EC50 (nM)

Below, 3 compounds whose answers are already recorded.
>>> datavalue("O=C(c1nn2c(=O)cc(-c3ccc(C4CCCCC4)cc3)[nH]c2c1C(=O)N1CC(CF)C1)N1CCCC1 [Compound 36]")
70
>>> datavalue("COc1nccnc1-c1nn2c(=O)cc(-c3ccc(C4CCCCC4)cc3)[nH]c2c1C(=O)N1CC(CF)C1 [Compound 13]")
80
>>> datavalue("N#Cc1nccnc1-c1nn2c(=O)cc(-c3ccc(C4CCCCC4)cc3)[nH]c2c1C(=O)N1CC(CF)C1 [Compound 8]")
80

I. C[C@H]1[C@@H](CF)CN1C(=O)c1c(-c2cnccn2)nn2c(=O)cc(-c3ccc(CC4CCCC4)cc3)[nH]c12 (single isomer, unassigned) [Isomer A, Example 44]
II. Cc1nccnc1-c1nn2c(=O)cc(-c3ccc(C4(F)CCCCC4)cc3)[nH]c2c1C(=O)N1CC(CF)C1 [Compound 59]
III. Cc1nccnc1-c1nn2c(=O)cc(-c3ccc(C4CCCCC4)c(F)c3)[nH]c2c1C(=O)N1CC(CF)C1 [Compound 21]
IV. CCCCCCC/C=C/c1cc(=O)n2nc(-c3nccnc3C)c(C(=O)N3C[C@H](CF)[C@@H]3C)c2[nH]1 [Compound 70]
Hey, can you sort those compounds up there by EC50, smallest first? Please list the labels according to the requested order.
IV, III, I, II

---

Biological target: TEAD1 YAP50-100 (Homo sapiens, UniProt P28347)
Assay: TEAD1-YAP HTRF (TR-FRET) protein-protein interaction assay
Details: TEAD1, YAP peptide 50-100, HTRF; read-out: TEAD1 YAP50-100 HTRF combined: EC50
assayEndpoint: EC50 (nM)

Below, 3 compounds whose answers are already recorded.
>>> datavalue("O=C(c1c(-c2ncco2)nn2c(=O)cc(-c3ccc(C4CCCCC4)cc3)[nH]c12)N1CC(CF)C1")
40
>>> datavalue("O=C(c1c(-c2ncccn2)nn2c(=O)cc(-c3ccc(C4(C5CCCC5)CC4)cc3)[nH]c12)N1CC(CF)C1")
80
>>> datavalue("CC1CCN1C(=O)c1nn2c(=O)cc(-c3ccc(C4CCCCC4)cc3)[nH]c2c1C(=O)N1CC(CF)C1 (single isomer, unassigned) [Enantiomer A, Example 33]")
70

I. Cc1nccnc1-c1nn2c(=O)cc(-c3ccc(CC4CCCC4)cc3)[nH]c2c1C(=O)N1C[C@@H](CF)[C@H]1C (single isomer, unassigned) [Isomer A, Example 42]
II. O=C(c1c(-c2cnccn2)nn2c(=O)cc(-c3ccc(CC4CCCC4)cc3)[nH]c12)N1CC(CF)C1
Sort I and II by EC50 descending and give the first. Could you answer with the label of the item you picked?
I
(I: 80 nM, II: 30 nM)

---

Molecular target: TEAD3 TAZ (amino acids 13-57) (Homo sapiens)
Sequence (Q99594 173-435 limits assumed): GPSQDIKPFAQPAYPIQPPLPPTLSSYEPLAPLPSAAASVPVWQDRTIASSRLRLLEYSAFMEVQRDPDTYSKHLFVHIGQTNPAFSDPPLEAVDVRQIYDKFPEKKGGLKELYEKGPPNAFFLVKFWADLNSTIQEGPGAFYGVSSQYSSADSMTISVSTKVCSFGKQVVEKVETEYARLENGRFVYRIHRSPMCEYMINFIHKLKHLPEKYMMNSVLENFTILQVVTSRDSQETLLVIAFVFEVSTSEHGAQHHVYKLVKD
Experiment: TEAD3-TAZ HTRF (TR-FRET) protein-protein interaction assay
Assay type: binding
Conditions: TEAD3, TAZ peptide, HTRF
assayEndpoint: TEAD3 TAZ HTRF combined: Max % Inhibition (%)

>>> datavalue("N#Cc1nccnc1-c1nn2c(=O)cc(-c3ccc(C4CCCCC4)cc3)[nH]c2c1C(=O)N1CC(CF)C1 [Compound 8]")
61.0
>>> datavalue("C[C@H]1[C@@H](CF)CN1C(=O)c1c(-c2cnccn2)nn2c(=O)cc(-c3ccc(CC4CCCC4)cc3)[nH]c12 (single isomer, unassigned) [Isomer B, Example 44]")
56.0
>>> datavalue("C[C@H]1[C@@H](CF)CN1C(=O)c1c(-c2ncccn2)nn2c(=O)cc(-c3ccc(CC4CCCC4)cc3)[nH]c12 (single isomer, unassigned) [Isomer A, Example 43]")
52.0

---

Target: TEAD4 YAP50-100 (Homo sapiens, UniProt Q15561)
Sequence (Q15561 217-434 limits assumed): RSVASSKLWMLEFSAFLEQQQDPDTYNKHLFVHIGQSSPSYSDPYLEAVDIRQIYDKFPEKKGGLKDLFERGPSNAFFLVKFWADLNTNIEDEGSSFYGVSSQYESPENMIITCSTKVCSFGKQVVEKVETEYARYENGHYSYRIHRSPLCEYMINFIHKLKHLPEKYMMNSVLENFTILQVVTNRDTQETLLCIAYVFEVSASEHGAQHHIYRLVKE
Experiment: TEAD4-YAP HTRF (TR-FRET) protein-protein interaction assay
Assay type: binding
Details: TEAD4, YAP peptide 50-100, HTRF
assayEndpoint: TEAD4 YAP50-100 HTRF combined: Max % Inhibition (%)

>>> datavalue("O=C(c1c(-c2cnccn2)nn2c(=O)cc(-c3ccc(C4CCCCC4)cc3)[nH]c12)N1CC(CF)C1 [Compound 17]")
42.0
>>> datavalue("Cc1nccnc1-c1nn2c(=O)cc(-c3ccc(OC(c4ccccc4)C(F)(F)F)cc3)[nH]c2c1C(=O)N1C[C@H](CF)[C@@H]1C (single isomer, unassigned) [Final product obtained using Enantiomer A from Step 1, Example 56]")
69.5
>>> datavalue("CN(C)C(=O)c1nn2c(=O)cc(-c3ccc(C4CCCCC4)cc3)[nH]c2c1C(=O)N1CC(CF)C1 [Compound 1]")
55.3
>>> datavalue("O=C(c1c(-c2ncccn2)nn2c(=O)cc(-c3ccc(C4CCCCC4)c(F)c3)[nH]c12)N1CC(CF)C1 [Compound 22]")
45.5
>>> datavalue("O=C(c1c(-c2ncccn2)nn2c(=O)cc(-c3ccc(C4CCCCC4)cc3)[nH]c12)N1CC(CF)C1 [Compound 15]")
50.5
>>> datavalue("Cc1nccnc1-c1nn2c(=O)cc(-c3ccc(C4CCCCC4)cc3)[nH]c2c1C(=O)N1C[C@@H](CF)[C@H]1C (single isomer, unassigned) [Isomer A, Example 41]")
51.0
